- assay info: log P determination (HPLC, calibration with unbranched alkan-2-ones)
- Format: physicochemical
- condition info: * LC-MS determination in the acidic range at pH 2.7, 0.1% aqueous formic acid and acetonitrile, linear gradient 10% to 95% acetonitrile
Exercise: state measured log p for each of the compounds provided.

Use the examples below as a reference point.
[
  {
    "compound": "Cc1c(Cl)c(C(F)(F)F)nn1C(C)C(=O)N1CCC(c2nc(C(=O)OC3CCCCC3)cs2)CC1 (racemic) [compound 769]",
    "result": "4.58*"
  },
  {
    "compound": "Cc1cc(C)n(C(C)(C)C(=O)N2CCC(c3nc(C(=O)OCc4ccncc4)cs3)CC2)n1 [compound 442]",
    "result": "1.33*"
  },
  {
    "compound": "Cc1cc(C)n(C(C)(C)C(=O)N2CCC(c3nc(C(=O)OC4CCCCC4)cs3)CC2)n1 [compound 370]",
    "result": "3.78*"
  },
  {
    "compound": "Cc1cc(C)n(C(C)(C)C(=O)N2CCC(c3nc(C(=O)OC[Si](C)(C)C)cs3)CC2)n1 [compound 369]",
    "result": "3.84*"
  }
]

Below are some compounds; for each one, tell me its log p.
1. Cc1cc(C)n(C(C)(C)C(=O)N2CCC(c3nc(C(=O)OCc4ccccc4)cs3)CC2)n1 [compound 379]
2. Cc1cc(C)n(C(C)(C)C(=O)N2CCC(c3nc(C(=O)OC4CCCc5ccccc54)cs3)CC2)n1 (stereo not shown) [compound 368]
3. Cc1cc(C)n(C(C)(C)C(=O)N2CCC(c3nc(C(=O)Oc4ccc5ccccc5c4)cs3)CC2)n1 [compound 378]

A.
1: 3.19*; 2: 4.04*; 3: 3.73*

----------
Give chromatographic logP for every item shown.
- assay info: log P determination (HPLC, calibration with unbranched alkan-2-ones)
- Assay type: physicochemical
- condition info: pH 7.8; read-out: log P (pH 7.8)

[
  {
    "molecule": "CCOC(=O)c1csc(C2CCN(C(=O)C(C)(C)n3nc(C)cc3C)CC2)n1 [IV-4]",
    "result": 2.34
  }
]

Q. Report measured chromatographic logP; entry is Cc1c(Cl)c(C(F)(F)F)nn1CC(=O)O [V-6]
A. 0.68

----------
- assay info: log P determination (HPLC, calibration with unbranched alkan-2-ones)
- Assay type: physicochemical
- condition info: reversed-phase (C18) HPLC column; * LC-MS determination in the acidic range at pH 2.7, 0.1% aqueous formic acid and acetonitrile, linear gradient 10% to 95% acetonitrile; read-out: log p
measured quantity: chromatographic logP
Answers are plain numbers.

Q. Answer with reported chromatographic logP of CC(C)(C)CCOC(=O)c1csc(C2CCN(C(=O)Cn3ccc(C(F)(F)F)n3)CC2)n1
A. 3.82

----------
- assay info: log P determination (HPLC, calibration with unbranched alkan-2-ones)
- Type: physicochemical
- condition info: * LC-MS determination in the acidic range at pH 2.7, mobile phases 0.1% aqueous formic acid and acetonitrile (0.1% formic acid), linear gradient 10% to 95% acetonitrile; reversed-phase C 18 HPLC
I'd be grateful if you could share measured log p for these entries.

Solved entries (count: 2):
[
  {
    "compound": "Cc1cc(C(F)(F)F)nn1CC(=O)N1CCC(c2nc(C(=O)OC3Cc4ccccc4C3)cs2)CC1",
    "log p": "3.67*"
  },
  {
    "compound": "CCCCC(CC)COC(=O)c1csc(C2CCN(C(=O)C(C)(C)n3nc(C)cc3C)CC2)n1 (stereo not shown)",
    "log p": "5.08*"
  }
]

Below are 2 compounds. Give each one its log p.
1. CC(C)(C)c1cc(C(F)(F)C(F)(F)F)nn1CC(=O)N1CCC(c2nc(C(=O)OCC3CCCCC3)cs2)CC1
2. Cc1cc(C(F)(F)F)nn1CC(=O)N1CCC(c2nc(C(=O)OCc3ccc(Cl)c(Cl)c3)cs2)CC1

A.
4.94*
4.09*
